Source of measurements: patent US7879857B2

Target: PARP-1 enzyme (Homo sapiens, UniProt P09874)
Construct: made in house
Sequence (P09874 whole entry): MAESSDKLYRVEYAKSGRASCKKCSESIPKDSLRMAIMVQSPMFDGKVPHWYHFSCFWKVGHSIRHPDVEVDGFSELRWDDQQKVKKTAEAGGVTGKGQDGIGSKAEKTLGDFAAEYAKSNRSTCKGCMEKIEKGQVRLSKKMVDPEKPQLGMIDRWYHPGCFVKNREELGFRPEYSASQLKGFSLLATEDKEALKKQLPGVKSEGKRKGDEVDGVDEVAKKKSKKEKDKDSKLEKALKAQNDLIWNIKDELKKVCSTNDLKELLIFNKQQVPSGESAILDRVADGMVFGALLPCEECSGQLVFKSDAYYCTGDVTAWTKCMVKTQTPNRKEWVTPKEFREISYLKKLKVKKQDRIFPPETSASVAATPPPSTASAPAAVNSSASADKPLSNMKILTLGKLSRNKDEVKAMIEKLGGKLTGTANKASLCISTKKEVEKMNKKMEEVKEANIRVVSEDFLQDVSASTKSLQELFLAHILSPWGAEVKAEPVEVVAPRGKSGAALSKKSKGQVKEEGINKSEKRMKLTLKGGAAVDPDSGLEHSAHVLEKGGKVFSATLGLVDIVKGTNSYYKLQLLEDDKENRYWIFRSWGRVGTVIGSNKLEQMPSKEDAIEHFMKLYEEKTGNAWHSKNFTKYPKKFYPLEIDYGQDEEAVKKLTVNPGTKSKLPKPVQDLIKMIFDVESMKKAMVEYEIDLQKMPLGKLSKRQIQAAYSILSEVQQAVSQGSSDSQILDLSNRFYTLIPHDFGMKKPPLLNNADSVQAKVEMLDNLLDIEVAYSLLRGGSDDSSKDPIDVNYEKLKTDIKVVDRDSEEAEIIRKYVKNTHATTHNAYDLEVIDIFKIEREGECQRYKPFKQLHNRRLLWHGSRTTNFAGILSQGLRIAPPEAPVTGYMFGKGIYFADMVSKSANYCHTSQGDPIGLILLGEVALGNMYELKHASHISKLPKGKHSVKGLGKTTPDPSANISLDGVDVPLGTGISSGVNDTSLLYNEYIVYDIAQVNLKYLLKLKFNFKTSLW
Assay: In vitro filtration assay for PARP-1 inhibitory activity
Type: biochemical
Settings: [32P]-NAD as ADP-ribosyl donor, histones, nicked DNA; read-out: In vitro filtration assay pIC50 (converted)
recordedMetric: IC50 (µM)

The cases that follow already have their IC50 on record.
CC(C)C(c1ccc2[nH]c(=O)c(-c3ccsc3)nc2c1)n1ccnc1 (stereo not drawn)    4.86
CCCCC(c1ccc2[nH]c(=O)c(C)nc2c1)n1ccnc1 (stereo not drawn)    4.63
CC(C)C(c1ccc2[nH]c(=O)c(-c3cccs3)nc2c1)n1cncn1 (stereo not drawn)    4.33
Cc1cc2cc(C(CCN(C)C)c3ccco3)ccc2[nH]c1=O (stereo not drawn)    7.57
CC(C)C(c1ccc2[nH]c(=O)c(-c3ccsc3)nc2c1)n1cncn1 (stereo not drawn)    7.13

(a) CCc1nc2cc(C(C(C)C)n3ccnc3)ccc2[nH]c1=O (stereo not drawn)
(b) Cc1cc2cc(C(O)(CCN(C)C)c3ccccn3)ccc2[nH]c1=O (stereo not drawn)
(c) Cc1cc2cc(C(CCc3ccccc3)NC=O)ccc2[nH]c1=O (stereo not drawn)
(d) CCc1cc2cc(C(O)C(CC)CC)ccc2[nH]c1=O (stereo not drawn)
Highest IC50 first, then in falling order down to the smallest. # answer = labels listed in requested order c, b, a, d
